test-system: T1, recombinant HLA-DQ8/gliadin peptide (human)
T1 chain 1: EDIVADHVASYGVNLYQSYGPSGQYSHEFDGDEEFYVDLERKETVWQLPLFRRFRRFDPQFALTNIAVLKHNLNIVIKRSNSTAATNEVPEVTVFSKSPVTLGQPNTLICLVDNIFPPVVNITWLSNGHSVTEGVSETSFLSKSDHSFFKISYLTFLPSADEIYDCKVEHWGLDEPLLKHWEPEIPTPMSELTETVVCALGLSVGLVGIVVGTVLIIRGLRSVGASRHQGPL
T1 chain 2: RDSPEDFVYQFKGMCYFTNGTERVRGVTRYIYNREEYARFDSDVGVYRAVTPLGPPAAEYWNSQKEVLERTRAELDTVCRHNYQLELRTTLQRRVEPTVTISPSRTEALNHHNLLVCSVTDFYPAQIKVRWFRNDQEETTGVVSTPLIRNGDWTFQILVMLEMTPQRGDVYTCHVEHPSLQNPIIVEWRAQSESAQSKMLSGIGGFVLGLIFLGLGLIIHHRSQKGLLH
assay-remarks: bead-based flow cytometry: HLA-DQ8/gliadin peptide on beads, antibody titrated, blocking of SP3.4 TCR-PE binding [panel DQ8/SP3.4 TCR neutralization]
Experimental: Streptavidin-coated yellow particles (Spherotech, SVFB-2552-6K) were incubated in blocking buffer (2% BSA in PBS) for 30 minutes with shaking at room temperature. After centrifugation and aspiration of the supernatant, 0.167 micro g/mL of soluble […] was then added as 1.2E+4 beads/micro L solution and immobilized for 60 minutes with shaking at room temperature in 96 well plates (Sigma Aldrich, Cat No. M2686). […]
readout-kind: IC50 (read off the curve)

Below: 3 binders and their reported IC50 (read off the curve).
binder	result
DQN0016 (antibody, human IgG1, kappa, V domains shown, Rabbit B-cell derived variable regions recombined with F1332m heavy and hkOMC light constant regions; expressed in FreeStyle 293-F cells; also called DQN0016cc) VH: QSLEESGGDLVKPGASLTLTCTASGFSFSSRYWMCWVRQAPGKGLEWIACIDAGSSGITYYASWANGRFTISKTSSTTVTLQMTSLTAADTATYFCARDAWSTTDGWNTFNLWGPGTLVTVSS VL: DVVMTQTPASVSAAVGGTVTIKCQASQSIGSNLNWYQQKPGQSPKLLIYSASTLASGVPSRFKGSGSGTEYTLTISNLECADAATYYCQSYYYTGSSAVNNFGGGTKVEIKR	~0.2 µg/mL
DQN0139 (antibody, human IgG1, kappa, V domains shown, also called DQN0139bb) VH: QSLEESGGRLVTPGTALTLTCTVSGFSLSSYAMGWVRQAPGKGLEYIGWTSPGDSAYYASWTKGRFTISRTSTTVELKITSPTTEDTATYFCARDAAYIGHWAFNLWGPGTLVTVSS VL: DVVMTQTPASVSAPVGGTVTINCQASESIYSNLAWYQQKPGQPPKLLIYGASTLESGVPSRVKGSGYGTQFTLTISDLECADAATYYCQQYYGSSSTAFTFGGGTKVEIKR	~0.3 µg/mL
DQN0100 (antibody, human IgG1, kappa, V domains shown, Rabbit variable regions with F1332m and hkOMC constant regions; also called DQN0100aa) VH: QQQLEESGGGLVKPGASLTLTCKGSGFSFTSGYWICWVRQAPGKGLEWIGCIYTGSSGSTYYASWAKGRFTISRSSTTVTLQMTSLTVADTATYFCAGDPSGASSGWDNLWGPGTLVTVSS VL: AFELTQTPSSVEAAVGGTVTIKCQASQTIVSWLAWYQQKPGQRPKLLILYASNLASGVSSRFRGSGSGTDYTLTISDLECDDAATYYCQSYYFSTSSPDMYAFGGGTKVEIKR	~0.1 µg/mL

Next up:
Request: Entry DQN0157 (antibody, human IgG1, kappa, V domains shown, Rabbit variable regions with F1332m and hkOMC constant regions; also called DQN0157cc) VH: QSLEESGGDLVKPGASLTLTCTASGFSFSSSYYMCWVRQAPGKGLEWIACIYTGSSGSTYYPSWAKGRFTISKTSSTTVTLQMTSLTAADTATYFCARVRAGSGYYYFNLWGPGTLVTVSS VL: DIVMTQTPSSVSAAVGGTVTIKCQASQTIYSGLAWYQQKPGQPPKLLIYDASDLASGVPSRFSGSGSGTEFTLAISGVQCDDAATYYCHGDYYGGSGTFFWTFGGGTKVEIKR : reported IC50 (read off the curve) = ?
Result: ~0.1 µg/mL
